Consider the following compounds and their measured Diffusion coefficient readings.
procedure-details: Self-diffusion NMR (SD-NMR) diffusion coefficients of the components of the AX-loaded medium
Format: physicochemical
recorded-conditions: 0.5 wt % AX-loaded medium, water content 60 wt %

[[record]]
compound = "CC(O)CO (stereo not drawn) [PG, Propylene glycol]"
result = "2.41 × 10^−10 m^2/sec"

[[record]]
compound = "CCO [EtOH, Ethanol]"
result = "2.33 × 10^−10 m^2/sec"

[[record]]
compound = "CC1=C(/C=C/C(C)=C/C=C/C(C)=C/C=C/C=C(C)/C=C/C=C(C)/C=C/C2=C(C)C(=O)[C@@H](O)CC2(C)C)C(C)(C)C[C@H](O)C1=O [AX, astaxanthin]"
result = "1.4 × 10^−12 m^2/sec"

[[record]]
compound = "CCCCCCCC/C=C\\CCCCCCCC(=O)OCCOCC(OCCO)C1OCC(OCCO)C1OCCO (stereo not drawn) [Tween 80, Polysorbate 80]"
result = "2.2 × 10^−12 m^2/sec"

[[record]]
compound = "C=C(C)[C@H]1CC=C(C)CC1 [R-(+)-limonene, R-(+)-Limonene]"
result = "3.1 × 10^−12 m^2/sec"


Turning to the following compound.
Requested field: Diffusion coefficient. Item: [2H]O[2H] [Formulation D2O, D2O] 7.96 × 10^−10 m^2/sec

* * *

procedure-details: Self-diffusion NMR (SD-NMR) diffusion coefficients of the components of the AX-loaded medium
Assay type: physicochemical
recorded-conditions: 0.5 wt % AX-loaded medium, water content 80 wt %
quantity-name: Diffusion coefficient

[[record]]
compound = "[2H]O[2H]"
result = "1.16 × 10^−9 m^2/sec"

[[record]]
compound = "CC1=C(/C=C/C(C)=C/C=C/C(C)=C/C=C/C=C(C)/C=C/C=C(C)/C=C/C2=C(C)C(=O)[C@@H](O)CC2(C)C)C(C)(C)C[C@H](O)C1=O"
result = "1.12 × 10^−11 m^2/sec"


Requested field: Diffusion coefficient. Item: `CCO` 4.67 × 10^−10 m^2/sec

Requested field: Diffusion coefficient. Item: CCCCCCCC/C=C\CCCCCCCC(=O)OCCOCC(OCCO)C1OCC(OCCO)C1OCCO (stereo not drawn) [Tween 80, Polysorbate 80] 1.05 × 10^−11 m^2/sec

Requested field: Diffusion coefficient. Item: C=C(C)[C@H]1CC=C(C)CC1 [R-(+)-limonene, R-(+)-Limonene] 1.10 × 10^−11 m^2/sec

Requested field: Diffusion coefficient. Item: CC(O)CO (stereo not drawn) 4.67 × 10^−10 m^2/sec

* * *

procedure-details: Self-diffusion NMR (SD-NMR) diffusion coefficients of the components of the AX-loaded medium
Format: physicochemical
recorded-conditions: 0.5 wt % AX-loaded medium, water content 90 wt %
quantity-name: Diffusion coefficient

[[record]]
compound = "C=C(C)[C@H]1CC=C(C)CC1 [R-(+)-limonene, R-(+)-Limonene]"
quantity_name = "Diffusion coefficient"
result = "1.91 × 10^−11 m^2/sec"

[[record]]
compound = "[2H]O[2H] [Formulation D2O, D2O]"
quantity_name = "Diffusion coefficient"
result = "1.48 × 10^−09 m^2/sec"

[[record]]
compound = "CCCCCCCC/C=C\\CCCCCCCC(=O)OCCOCC(OCCO)C1OCC(OCCO)C1OCCO (centres unmarked) [Tween 80, Polysorbate 80]"
quantity_name = "Diffusion coefficient"
result = "1.91 × 10^−11 m^2/sec"

[[record]]
compound = "CC(O)CO (centres unmarked) [PG, Propylene glycol]"
quantity_name = "Diffusion coefficient"
result = "6.03 × 10^−10 m^2/sec"


Turning to the following compound.
Requested field: Diffusion coefficient. Item: CCO [EtOH, Ethanol] 5.89 × 10^−10 m^2/sec

* * *

procedure-details: Self-diffusion NMR (SD-NMR) diffusion coefficients of the components of the AX-loaded medium
Format: physicochemical
recorded-conditions: 0.5 wt % AX-loaded medium, water content 30 wt %
Consider the following compounds and their measured Diffusion coefficient readings.

Worked examples follow.
[[record]]
compound = "CC1=C(/C=C/C(C)=C/C=C/C(C)=C/C=C/C=C(C)/C=C/C=C(C)/C=C/C2=C(C)C(=O)[C@@H](O)CC2(C)C)C(C)(C)C[C@H](O)C1=O"
result = "3 × 10^−13 m^2/sec"

[[record]]
compound = "CC(O)CO (stereo not drawn)"
result = "8.69 × 10^−11 m^2/sec"

[[record]]
compound = "CCO"
result = "8.67 × 10^−11 m^2/sec"

[[record]]
compound = "CCCCCCCC/C=C\\CCCCCCCC(=O)OCCOCC(OCCO)C1OCC(OCCO)C1OCCO (stereo not drawn) [Tween 80, Polysorbate 80]"
result = "6 × 10^−13 m^2/sec"

[[record]]
compound = "C=C(C)[C@H]1CC=C(C)CC1 [R-(+)-limonene, R-(+)-Limonene]"
result = "3.2 × 10^−12 m^2/sec"


Turning to the following compound.
Requested field: Diffusion coefficient. Item: `[2H]O[2H]` 3.2 × 10^−12 m^2/sec

* * *

procedure-details: Self-diffusion NMR (SD-NMR) diffusion coefficients of the components of the AX-loaded medium
Type: physicochemical
recorded-conditions: 0.5 wt % AX-loaded medium, water content 70 wt %
quantity-name: Diffusion coefficient

[[record]]
compound = "CCO"
quantity_name = "Diffusion coefficient"
result = "3.32 × 10^−10 m^2/sec"

[[record]]
compound = "CC1=C(/C=C/C(C)=C/C=C/C(C)=C/C=C/C=C(C)/C=C/C=C(C)/C=C/C2=C(C)C(=O)[C@@H](O)CC2(C)C)C(C)(C)C[C@H](O)C1=O"
quantity_name = "Diffusion coefficient"
result = "4.8 × 10^−12 m^2/sec"

[[record]]
compound = "C=C(C)[C@H]1CC=C(C)CC1 [R-(+)-limonene, R-(+)-Limonene]"
quantity_name = "Diffusion coefficient"
result = "5.7 × 10^−12 m^2/sec"


Requested field: Diffusion coefficient. Item: CCCCCCCC/C=C\CCCCCCCC(=O)OCCOCC(OCCO)C1OCC(OCCO)C1OCCO (stereo not drawn) [Tween 80, Polysorbate 80] 5.3 × 10^−12 m^2/sec

Requested field: Diffusion coefficient. Item: CC(O)CO (stereo not drawn) 3.35 × 10^−10 m^2/sec

Requested field: Diffusion coefficient. Item: `[2H]O[2H]` 9.1 × 10^−10 m^2/sec

* * *

Consider the following compounds and their measured Diffusion coefficient readings.
procedure-details: Self-diffusion NMR (SD-NMR) diffusion coefficients of the components of the AX-loaded medium
Format: physicochemical
recorded-conditions: 0.5 wt % AX-loaded medium, water content 0 wt %

Requested field: Diffusion coefficient. Item: CCCCCCCC/C=C\CCCCCCCC(=O)OCCOCC(OCCO)C1OCC(OCCO)C1OCCO (centres unmarked) [Tween 80, Polysorbate 80] 4.5 × 10^−12 m^2/sec

* * *

Consider the following molecules and their measured Diffusion coefficient readings.
procedure-details: Self-diffusion NMR (SD-NMR) diffusion coefficients of the components of the AX-loaded medium
Assay type: physicochemical
recorded-conditions: 0.5 wt % AX-loaded medium, water content 50 wt %

Worked examples follow.
[[record]]
molecule = "CCCCCCCC/C=C\\CCCCCCCC(=O)OCCOCC(OCCO)C1OCC(OCCO)C1OCCO (stereo not drawn) [Tween 80, Polysorbate 80]"
result = "9 × 10^−13 m^2/sec"

[[record]]
molecule = "CC(O)CO (stereo not drawn) [PG, Propylene glycol]"
result = "1.75 × 10^−10 m^2/sec"

[[record]]
molecule = "C=C(C)[C@H]1CC=C(C)CC1 [R-(+)-limonene, R-(+)-Limonene]"
result = "1.4 × 10^−12 m^2/sec"

[[record]]
molecule = "[2H]O[2H] [Formulation D2O, D2O]"
result = "2.69 × 10^−11 m^2/sec"

[[record]]
molecule = "CC1=C(/C=C/C(C)=C/C=C/C(C)=C/C=C/C=C(C)/C=C/C=C(C)/C=C/C2=C(C)C(=O)[C@@H](O)CC2(C)C)C(C)(C)C[C@H](O)C1=O [AX, astaxanthin]"
result = "7 × 10^−13 m^2/sec"


Requested field: Diffusion coefficient. Item: CCO [EtOH, Ethanol] 1.7 × 10^−10 m^2/sec

* * *

procedure-details: Self-diffusion NMR (SD-NMR) diffusion coefficients of the components of the AX-loaded medium
Type: physicochemical
recorded-conditions: 0.5 wt % AX-loaded medium, water content 10 wt %
Consider the following molecules and their measured Diffusion coefficient readings.

Requested field: Diffusion coefficient. Item: CC(O)CO (stereo not drawn) [PG, Propylene glycol] 4.78 × 10^−11 m^2/sec

Requested field: Diffusion coefficient. Item: [2H]O[2H] [Formulation D2O, D2O] 3.1 × 10^−11 m^2/sec

Requested field: Diffusion coefficient. Item: CC1=C(/C=C/C(C)=C/C=C/C(C)=C/C=C/C=C(C)/C=C/C=C(C)/C=C/C2=C(C)C(=O)[C@@H](O)CC2(C)C)C(C)(C)C[C@H](O)C1=O [AX, astaxanthin] 3 × 10^−12 m^2/sec

Requested field: Diffusion coefficient. Item: CCO [EtOH, Ethanol] 4.66 × 10^−11 m^2/sec

Requested field: Diffusion coefficient. Item: CCCCCCCC/C=C\CCCCCCCC(=O)OCCOCC(OCCO)C1OCC(OCCO)C1OCCO (stereo not drawn) [Tween 80, Polysorbate 80] 3.5 × 10^−12 m^2/sec

Requested field: Diffusion coefficient. Item: C=C(C)[C@H]1CC=C(C)CC1 [R-(+)-limonene, R-(+)-Limonene] 3.09 × 10^−11 m^2/sec
